Test system: SF-295 CNS
ASSAY EXPLANATION: NCI-60 one-dose screen, 48 h (100 = growth as untreated, 0 = no growth, -100 = all killed)
RUN PARAMETERS: 10 µM unless noted
Experimental: Cells are grown in 96 well plates and exposed to the test compound for 48 hours. Compounds are tested at a single concentration, which is 10^-5 M for most compounds. The reported endpoint is percent growth (GI% or GIPRCNT), where numbers from 0 - 100% represent growth inhibition, and numbers from -100% - 0 represent cell death. For example, a value of 40 represents 60% growth inhibition. A value of 0 means no net growth occurred over the course of the experiment. […]
The panel holds about 83,000 compounds, 20% with a hit somewhere; the sample as a whole holds those more often. Activity calls are given as the source filed them. Rule for the calls: active = growth percent below 10; inactive = the rest.
Recorded growth values for a group of compounds are listed next.

Solved cases (5 shown):
COMPOUND | TEST RESULT
[Cl][Ru].c1ccc(-c2cc(-c3ccccn3)nc(-c3ccccn3)c2)cc1.c1ccc(-c2ccnc3c2ccc2c(-c4ccccc4)ccnc23)cc1 | -23.1% (active)
CCC/C=C/C=C/C(=O)N[C@@H](Cc1cc(F)cc(F)c1)C(=O)N[C@@H]1C(=O)N2CCC[C@H]2C(=O)N2CCCC[C@H]2C(=O)N[C@@H](C)C(=O)N2C[C@H](C)C[C@H]2C(=O)O[C@H]1C | 10.3% (inactive)
O=C1c2c(c3c4cccnc4[nH]c3c3ccc4ccccc4c23)C(=O)N1CCO | 50.9% (inactive)
CN1CCN(Cc2ccc(NC(=O)c3cncc(C#Cc4cnc5[nH]ncc5c4)c3)cc2C(F)(F)F)CC1 | 35.4% (inactive)
Cn1ccnc1C(=O)/C=C/c1ccc(NC(=O)Nc2ccc(F)cc2)cc1 | 23.3% (inactive)

## Task Look at this compound and give its reported growth. COc1cccc(COc2ccc(/C=C3/C(=O)Nc4cc(Cl)ccc43)cc2)c1
## Result 103% (inactive)

## Task Look at this compound and give its reported growth. Fc1ccc(-c2cc3nc(C(Cl)Cl)nc(-c4ccccc4)n3n2)cc1
## Result 2.73% (active)

---

Tested on: M14 melanoma
ASSAY EXPLANATION: NCI-60 one-dose screen, 48 h (100 = growth as untreated, 0 = no growth, -100 = all killed)
RUN PARAMETERS: 10 µM unless noted
This is part of a sample that, as a whole, favours compounds with a hit. Of some 83,000 tested, about 20% had one in any assay.
Recorded growth values for a group of compounds are listed next.
All answers are understood in %, so give the number only.

Solved cases (3 shown):
COMPOUND | STUDY SYSTEM | TEST RESULT
O=C(CCN1C(=O)/C(=C/c2ccccc2)SC1=S)N1CCOCC1 | M14 melanoma | 76.8
O=C(c1ccc(O)cc1)C1[C@H](c2ccc(Cl)cc2)[C@@H](c2ccccc2)NC12C(=O)Nc1ccc(Cl)cc12 (some centres undefined) | M14 melanoma | 47.7
Cc1ccc2ccc3ccc(C)nc3c2n1.Cc1ccc2ccc3ccc(C)nc3c2n1.Oc1c(Cl)cc(Cl)c2ccc(CN3CCCCC3)nc12.[Ru] | M14 melanoma | -94.1

Next compound, growth to be filled in.
## Task Look at this compound and give its reported growth. O=C(N/N=C/c1ccc([N+](=O)[O-])s1)c1[nH]c2ccc(Br)cc2c1-c1ccccc1
## Result -34.5

---

Recorded growth values for a group of compounds are listed next.
System: A498 renal
ASSAY EXPLANATION: NCI-60 one-dose screen, 48 h (100 = growth as untreated, 0 = no growth, -100 = all killed)
RUN PARAMETERS: 10 µM unless noted
Compounds without any hit were thinned out: in the full panel of roughly 83,000, 20% have a hit.
All answers are understood in %, so give the number only.

Solved cases (10 shown):
COMPOUND | MEASURE | TEST RESULT
O=C(NNc1nc2cc(F)ccc2n2c(CN3CC4(COC4)C3)ccc12)c1cnccn1 | growth | -6.2
O=[N+]([O-])c1ccc(O)c2ncccc12 | growth | 55.7
N#Cc1c(-c2ccc(F)cc2)nc2c(C#N)c(Nc3ccccc3)nn2c1N | growth | 66.3
COc1cc(OC)c(C2SCC(=O)N2Nc2ncnc3ccccc23)cc1OC (stereo unspecified) | growth | 81.8
CC1=C(C)C(=O)C(Nc2ccccc2)=C(Cl)C1=O | growth | 91.2
COc1ccc(/C=N/Nc2ccnc3cc(Cl)ccc23)cc1Cl | growth | 36.7
CCOC(=O)c1c(Nc2ccccc2)nn2c(N)c(C#N)c(-c3ccc(OC)cc3)nc12 | growth | 75.5
CC(=O)c1ccc(Nc2nc(SC(C)C)nc(-c3ccccc3)c2C#N)cc1 | growth | 42.3
c1ccc2c(NCCCn3ccnc3)c3oc4ccccc4c3nc2c1 | growth | -18.2
Nc1cc(-c2c[nH]c3ccc(F)cc23)nc2cc(-c3c[nH]c4ccc(F)cc34)nn12 | growth | 67.8

Next compound, growth to be filled in.
## Task Look at this compound and give its reported growth. CCCC(=O)NC(c1cccnc1)c1cc(C)c2cccnc2c1O (stereo unspecified)
## Result 63.1

---

Tested on: NCI-H322M lung
ASSAY EXPLANATION: NCI-60 one-dose screen, 48 h
RUN PARAMETERS: 10 µM unless noted
About 83,000 compounds went through this panel and 20% of them were active in at least one assay; those are over-represented in the sample as a whole. Calls of active or inactive are those of the source. How the source made its calls: active means growth percent below 10; inactive means the rest.
Pick one: 1 for active, 0 for inactive

## Task Per the assay record, what outcome was assigned to COc1cc(-c2ccc3ncnc(NC(C)c4ccccc4)c3c2)cnc1OC (centres undefined) ?
## Result 0

## Task Per the assay record, what outcome was assigned to COc1ccc(Cc2nn(CC(=O)N/N=C/c3ccc(Cl)cc3)c(=O)c3c(C)noc23)cc1 ?
## Result 0

## Task Per the assay record, what outcome was assigned to CCCSc1nc(Nc2ccc(/C(C)=N\NC(N)=S)cc2)c(C#N)c(-c2ccc(OC)cc2)n1 ?
## Result 0

## Task Per the assay record, what outcome was assigned to CC(C)(C)OC(=O)N1C(=O)c2c(c3c4ccccc4[nH]c3c3ccc4ccccc4c23)C1=O ?
## Result 0

## Task Per the assay record, what outcome was assigned to O=C(CN1CCOCC1)NNc1ncnc2ccccc12 ?
## Result 0

## Task Per the assay record, what outcome was assigned to O=C(N/N=C/c1cccs1)c1[nH]c2ccc(Br)cc2c1-c1ccccc1 ?
## Result 0

## Task Per the assay record, what outcome was assigned to CN1CCc2c(sc3ncnc(N/N=C/c4ccc(Cl)c(Cl)c4)c23)C1 ?
## Result 1

## Task Per the assay record, what outcome was assigned to O=C1Nc2ccccc2Oc2ccc(S(=O)(=O)CC3CO3)cc21 (centres undefined) ?
## Result 0

## Task Per the assay record, what outcome was assigned to O=C(CSc1nccc(=O)[nH]1)Nc1ccc(-c2nc3ccccc3[nH]2)cc1 ?
## Result 0

## Task Per the assay record, what outcome was assigned to N#Cc1c(-c2ccc(Cl)cc2)nc(SCc2ccc(F)cc2)nc1N1CCNCC1 ?
## Result 0

## Task Per the assay record, what outcome was assigned to CN(C)CCCNc1c2ccc(Cl)cc2nc2c1oc1ccc(Cl)cc12 ?
## Result 1

## Task Per the assay record, what outcome was assigned to CN(C)S(=O)(=O)c1oc(-c2ccccc2)nc1C#N ?
## Result 0

## Task Per the assay record, what outcome was assigned to CN(C)c1ccc(/C=c2\sc3nc4ccccc4n3c2=O)cc1 ?
## Result 0

## Task Per the assay record, what outcome was assigned to O=C(Oc1ccc2ccc(=O)oc2c1)c1ccc(Cl)cc1 ?
## Result 0

## Task Per the assay record, what outcome was assigned to COC(=O)C1CN(S(=O)(=O)/N=C2\NC(=O)NC2=C(Cl)Cl)C1 ?
## Result 0

## Task Per the assay record, what outcome was assigned to CCN1CCN(/C(=N\c2sc(-c3ccccc3)nc2-c2ccccc2)c2ccccc2)CC1 ?
## Result 0

## Task Per the assay record, what outcome was assigned to Clc1ccc(-c2cn3cc(Cc4ccc(Cl)c(Cl)c4)sc3n2)cc1 ?
## Result 0

## Task Per the assay record, what outcome was assigned to O=c1[nH]c2ccc(Cl)cc2cc1CSc1ccccc1Nc1nccc(-c2ccc(Cl)cc2)n1 ?
## Result 0

## Task Per the assay record, what outcome was assigned to C[C@@H](Nc1c(C#N)cnc2ccc(-c3cnc(N)nc3)cc12)c1ccccc1 ?
## Result 1

## Task Per the assay record, what outcome was assigned to CC(C)(C)Nc1nc2c(OCCc3ccccc3)cccn2c1-c1cccc(F)c1 ?
## Result 0

## Task Per the assay record, what outcome was assigned to Cc1[nH]nc2ncc(C#Cc3cncc(C(=O)Nc4ccc(CN5CCN(C)CC5)c(C(F)(F)F)c4)c3)cc12 ?
## Result 0

## Task Per the assay record, what outcome was assigned to CN(C)CCCOc1c2ccccc2nc2c1oc1ccc(Cl)cc12 ?
## Result 1

## Task Per the assay record, what outcome was assigned to Cc1cc(=O)oc2cc(OCCCOc3ccc(/C=C/C(=O)Nc4ccc(Cl)cc4)cc3)ccc12 ?
## Result 0

## Task Per the assay record, what outcome was assigned to CNC(=O)c1cc(-c2ccc(NC(=O)Nc3ccc(N4CCN(C)CC4)c(C(F)(F)F)c3)cc2)nc2cccnc12 ?
## Result 1

## Task Per the assay record, what outcome was assigned to CS(=O)(=O)c1ccc(-c2nc3ccccn3c2/C=N/Nc2nc(-c3ccc(Cl)cc3)cs2)cc1 ?
## Result 0
